Recorded values, source patent US20060045953A1.

pEC50 values for the compounds below.
molecular target: hT1R2/hT1R3 sweet receptor (Homo sapiens, UniProt Q7RTX0+Q8TE23); construct: expressed in transfected cells; host or cells: HEK293 derivative stably expressing Gα15, clone S-9; experiment: In vitro hT1R2/hT1R3 sweet taste receptor activation assay (FLIPR, dose response); assay type: cell-based; conditions: Table E, Sweet Enhancer Amides; read-out: Sweet EC50
Sequence (Q8TE23 20-839): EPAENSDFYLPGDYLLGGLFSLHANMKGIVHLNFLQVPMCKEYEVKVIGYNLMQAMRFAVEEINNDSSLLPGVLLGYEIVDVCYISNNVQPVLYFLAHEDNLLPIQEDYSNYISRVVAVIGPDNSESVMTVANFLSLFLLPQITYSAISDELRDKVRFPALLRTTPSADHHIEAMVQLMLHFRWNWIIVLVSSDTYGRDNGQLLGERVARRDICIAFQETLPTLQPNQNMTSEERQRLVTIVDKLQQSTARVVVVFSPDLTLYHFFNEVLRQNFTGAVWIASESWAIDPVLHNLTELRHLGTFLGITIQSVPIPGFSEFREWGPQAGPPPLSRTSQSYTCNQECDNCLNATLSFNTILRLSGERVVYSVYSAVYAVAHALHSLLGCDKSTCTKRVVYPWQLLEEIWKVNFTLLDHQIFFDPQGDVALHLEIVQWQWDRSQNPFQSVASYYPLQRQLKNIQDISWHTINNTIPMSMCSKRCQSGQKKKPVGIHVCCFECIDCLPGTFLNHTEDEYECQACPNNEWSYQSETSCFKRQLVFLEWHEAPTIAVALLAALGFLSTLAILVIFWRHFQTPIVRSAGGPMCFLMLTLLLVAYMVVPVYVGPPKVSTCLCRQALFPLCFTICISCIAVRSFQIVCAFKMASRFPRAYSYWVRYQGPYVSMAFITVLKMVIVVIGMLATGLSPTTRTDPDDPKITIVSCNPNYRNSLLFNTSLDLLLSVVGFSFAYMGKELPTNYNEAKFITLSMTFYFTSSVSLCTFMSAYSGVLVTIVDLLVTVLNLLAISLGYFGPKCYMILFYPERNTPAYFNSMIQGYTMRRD
Sequence (Q7RTX0 21-852): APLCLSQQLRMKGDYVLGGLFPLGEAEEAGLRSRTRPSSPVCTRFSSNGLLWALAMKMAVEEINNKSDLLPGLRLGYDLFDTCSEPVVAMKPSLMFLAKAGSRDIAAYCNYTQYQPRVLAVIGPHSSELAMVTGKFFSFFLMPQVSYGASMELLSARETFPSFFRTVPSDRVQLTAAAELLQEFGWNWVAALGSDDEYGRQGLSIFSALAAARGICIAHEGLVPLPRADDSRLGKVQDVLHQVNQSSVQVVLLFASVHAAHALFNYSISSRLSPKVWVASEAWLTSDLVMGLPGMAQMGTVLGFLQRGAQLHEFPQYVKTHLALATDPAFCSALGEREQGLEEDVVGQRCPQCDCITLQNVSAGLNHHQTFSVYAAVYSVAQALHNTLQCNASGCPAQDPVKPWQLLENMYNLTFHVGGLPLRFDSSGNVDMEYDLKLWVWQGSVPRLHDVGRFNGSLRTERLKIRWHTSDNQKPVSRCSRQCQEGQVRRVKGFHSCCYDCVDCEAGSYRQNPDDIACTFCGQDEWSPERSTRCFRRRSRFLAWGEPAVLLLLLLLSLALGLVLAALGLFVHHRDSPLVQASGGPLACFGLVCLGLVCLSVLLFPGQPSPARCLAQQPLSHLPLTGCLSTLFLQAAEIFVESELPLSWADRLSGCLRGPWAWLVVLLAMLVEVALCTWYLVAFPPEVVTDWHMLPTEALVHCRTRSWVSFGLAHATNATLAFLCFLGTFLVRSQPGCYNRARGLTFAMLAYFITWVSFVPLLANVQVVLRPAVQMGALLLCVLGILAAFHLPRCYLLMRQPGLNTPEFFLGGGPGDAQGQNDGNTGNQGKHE
pEC50: −log10 of the molar value.
Reported endpoint: pEC50

INSERT INTO results (compound, value_reported) VALUES
  ('CC1CCCCC1NC(=O)c1cncc(Br)c1 (centres unmarked)', 5.62),
  ('CC1CCCCC1NC(=O)c1cc(Cl)ccc1Cl (centres unmarked)', 6.20),
  ('Cc1c(F)c(F)c(C(=O)NC2CCCC(C)C2C)c(F)c1F (centres unmarked)', 5.97),
  ('O=C(N[C@@H]1CCCc2ccccc21)c1cccc(O)c1O', 5.50),
  ('CC1CCC(NC(=O)c2cccc(Cl)c2O)c2ccccc21 (centres unmarked)', 5.79);
